Biological target: T1, recombinant protein consisting of the extracellular domain of human TREM2 fused to the His tag (human, UniProt Q9NZC2 19-174)
T1 construct: also called His tagged hTREM2; His-TREM2
T1 sequence: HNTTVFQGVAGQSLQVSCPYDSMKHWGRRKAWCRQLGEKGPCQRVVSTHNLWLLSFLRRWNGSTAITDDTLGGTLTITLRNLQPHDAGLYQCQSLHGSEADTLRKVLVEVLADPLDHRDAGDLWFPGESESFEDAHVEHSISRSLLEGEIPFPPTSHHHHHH
Assay: direct ELISA, coated His-TREM2 0.5 ug/mL, Ab stock 1 mg/mL
In plain terms, low OD at dilution 243000, meaning strictly below 0.4 OD, gives MET, and everything else gives NOT MET.

IN: Record 60H4A3 (antibody, V domains shown, Biotin conjugated in sup ELISA, cell-based ELISA and flow cytometry) VH: EVQLQESGPELVKPGASVKMSCKASGYTFTDYNMHWVKQSHGKSLEWIGYIYPNNGGTGYNQKFKGKATLTVNKSSSTAYMELRSLTSEDSAVYYCARSGRGFAYWGQGTLVTVSA VL: DIVMTQSPASLSVTPGDRVSLSCRASQSISDYLHWYQQKSHESPRLLIKYASQSISGIPSRFSGSGSGSDFTLSINSVEPEDVGVYYCQNGHSFPYTFGGGTKLEIK : is its OD at dilution 243000 strictly below 0.4 OD?
OUT: NOT MET

IN: Would you kindly verify if OD at dilution 243000 of 83E10B12 (antibody, V domains shown, Biotin conjugated in sup ELISA, cell-based ELISA and flow cytometry) VH: QVQLQESGPELVKPGASVKISCKASGYIFSYSWMNWVKQRPGKGLEWIGRIYPGDGDADYNGKFKGKATLTADKSSNTAYMQLTSLTSEDSAVYFCARLHIYDGYYVSVYWGQGTLVTVSA VL: DIQMTQTTSCLSASLGDRVTISCRASQDINNYLSWYQQKPDGTVKLLIYYTSKLHSGVPSRFSGSGSGTDYSLTIGNLEQEDVATYFCQQGDTLPWTFGGGTRLEIK is strictly less than 0.4 OD?
OUT: MET

IN: Dear reviewer, please state whether 61B11C9 (antibody, V domains shown, Biotin conjugated in sup ELISA, cell-based ELISA and flow cytometry) VH: QLQESGPEQVKPGASVKMSCRTSGYTFTAYNMHWVKQRLGKSLEWIGYIRPTNGDTRYNRRFRDKATLTVDKSSSTTYMELRSLTSEDSAVYYCTRSTTVASFDYWGQGTTLTVSS VL: DIVMTQTTSSLTVSVGQKITLNCKSSQSLLYTNNQKNFLAWYQQKPGQSPKLLIYWASTRDSGVPDRFTGSGSGTDFTLTITSVMAEDLAVYFCQQYYDFPPTFGGGTKLEIK has OD at dilution 243000 strictly beneath 0.4 OD.
OUT: NOT MET

Further cases:
IN: Would you kindly verify if OD at dilution 243000 of 80E3C7 (antibody, V domains shown, Biotin conjugated in sup ELISA, cell-based ELISA and flow cytometry; also called anti-TREM2 antibody (E3C7); TREM2 Ab E3C7) VH: QVQLQQPGAEPLKPGASVKMSCEASGYTFTNFWITWMKLRPGQGLEWIGDIYPGTGNTNYNEKFKSRATLTVDTSSTTAYMQLSSLTSEDSAVYYCAREAYYTNPGFAYWGHGTLVTVSA VL: DVLMTQSPLSLPVNLGDQASISCKSSQNIVHSNGNTYLEWYLQRPGQSPKLLIYKVSNRFSGVPDRFSGSGSGTDFTLKISRVEAEDLGVYYCFQGSHVPYTFGGGTKLEIK is strictly less than 0.4 OD?
OUT: NOT MET

IN: Strictly below 0.4 OD in OD at dilution 243000? 54H2C1 (antibody, V domains shown, Biotin conjugated in sup ELISA, cell-based ELISA and flow cytometry) VH: QVQLQQPGAEPLTPGASVKMSCEASGYTFTNFWITWVKLRPGQGLEWIGDIYPGSGNTNYNEKFKSRATLTVDTSSTTAYMQLSSLTSEDSAVYYCAREAYYTNPGFAYWGHGTLVTVSA VL: DVLMTQSPLSLPVNLGDQASISCKSSQNIVHSNGNTYLEWYLQRPGQSPKLLIYKVSNRFSGVPDRFSGSGSGTDFTLKISRVEAEDLGLYYCFQGSHVPYTFGGGTKLEIK
OUT: MET

IN: Lab note: OD at dilution 243000 threshold 0.4 OD. Does this binder come in strictly under it? 60H4G2 (antibody, V domains shown, Biotin conjugated in sup ELISA, cell-based ELISA and flow cytometry) VH: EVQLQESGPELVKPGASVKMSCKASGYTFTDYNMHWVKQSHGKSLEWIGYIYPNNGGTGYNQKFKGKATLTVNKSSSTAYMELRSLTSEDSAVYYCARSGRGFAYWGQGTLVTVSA VL: DIVMTQSTSSLTVTAGEKVTMSCKSSQSLLNSGNQKNYLTWYQQKPGQPPKLLIYWASSRESGVPDRFTGRGSGTDFTLTISSVQAEDLAVYYCQNDYSYPFTFGSGTKLEIK
OUT: NOT MET

The measured values listed here are drawn from patent US20240239886A1.
